Kindly state GI50 for each of the entries shown.
# Test system: HOP-92
# METHOD_NOTES: NCI tumour cell line growth inhibition, 48 h
Active and inactive are the calls of the source. Cut-off read from the data, not from the text of the source: active = GI50 up to about 1.1 µM and inactive = higher.

Lookup result for Cc1cc(=O)oc2c(OS(C)(=O)=O)c(OS(C)(=O)=O)ccc12 ; measured GI50: > 100 µM (inactive)

GI50 measured on CCN(c1ccccc1)[C@H]1C(=O)N(c2ccc([N+](=O)[O-])cc2)[C@H]1c1ccc(OC)cc1 = 15.8 µM (inactive)

GI50 recorded for this compound, C=CCNC1=C2C[C@@H](C)C[C@@H](OC)[C@H](OC(=O)CN)[C@H](C)/C=C(\C)[C@@H](OC(N)=O)[C@H](OC)/C=C\C=C(/C)C(=O)NC(=CC1=O)C2=O , is 3.41 µM (inactive)

GI50 measured on N/N=C(/C=C1\C(=O)Nc2ccccc21)c1ccccc1 = 24.5 µM (inactive)

Recorded values, source ChEMBL document CHEMBL1201862.
